- Tested on: hLiMTs
- assay notes: Combined HCI (HCS) and cellular ATP 3D assay in hLiMTs
- experimental conditions: hLiMTs; HCS endpoints; cut-off <25x Avg Cmax
quantity: hLiMTs <25x Avg Cmax HCS

Answered examples (6):
- compound: "CC(=O)Nc1ccc(O)cc1"
  hLiMTs <25x Avg Cmax HCS: "+ve"
- compound: "CS(=O)(=O)CCNCc1ccc(-c2ccc3ncnc(Nc4ccc(OCc5cccc(F)c5)c(Cl)c4)c3c2)o1"
  hLiMTs <25x Avg Cmax HCS: "+ve"
- compound: "COc1ccc2c(c1)c(CC(=O)O)c(C)n2C(=O)c1ccc(Cl)cc1"
  hLiMTs <25x Avg Cmax HCS: "+ve"
- compound: "O=C1CC2(CCCC2)CC(=O)N1CCCCN1CCN(c2ncccn2)CC1 [buspirone, reference compound]"
  hLiMTs <25x Avg Cmax HCS: "-ve"
- compound: "Nc1cc(N2CCCCC2)nc(N)[n+]1[O-]"
  hLiMTs <25x Avg Cmax HCS: "-ve"
- compound: "COc1ccccc1Oc1c(NS(=O)(=O)c2ccc(C(C)(C)C)cc2)nc(-c2ncccn2)nc1OCCO"
  hLiMTs <25x Avg Cmax HCS: "+ve"

The record that follows has no hLiMTs <25x Avg Cmax HCS shown yet.
Form field hLiMTs <25x Avg Cmax HCS for item C1CCC(C(CC2CCCCN2)C2CCCCC2)CC1 (stereo not shown) on hLiMTs: +ve

Reference source for all entries: paper PMC7395068
